Assay: Plasma and Brain Levels after oral dosing
Type: in vivo
Conditions: brain/plasma; 20 mg/kg oral, male mouse, fed, 1.5 hr; read-out: Kpuu (Cu,brain vs. Cu,plasma)
Measurement Type: Kp uu at 1 h

>>> result_number("C[C@H]1c2cccc(-c3cn[nH]c3)c2C[C@H](CO)N1C(=O)Cc1c(Cl)cccc1Cl")
0.1

---

Assay: Plasma and Brain Levels after oral dosing
Assay type: in vivo
Conditions: male, mouse, brain, oral, 6 mg/kg, 6 mg/kg oral, fed, read-out: Cu, brain
Procedure: Example 1 is orally dosed to male mouse from 1 mg/kg to 30 mg/kg in fed condition, and the plasma and brain concentration are determined 1.5 hr post-dose. […]
Measurement Type: concentration at 1.5 h (nM)

>>> result_number("C[C@H]1c2cccc(-c3cnn(C)c3)c2C[C@H](CO)N1C(=O)Cc1c(Cl)cccc1Cl [Example 1]")
3.22
